Test system: RXF 393 renal
ASSAY SUMMARY: NCI tumour cell line growth inhibition, 48 h
The reader will find reported TGI values listed item by item below.

Example cases with answers are listed next.
1. CCCCCCn1c(SCC)c2ccccc2c1-c1nc(F)nc(F)n1 ... > 100 µM
2. CCOC(=O)/C(O)=C(/C=N\C(=S)Nc1ccccc1Cl)C(=O)OCC ... > 100 µM
3. COc1ccc(Cn2nc(-c3cc(OC)c(OC)c(OC)c3)c3c2CCc2cnoc2-3)cc1OC ... 9.29 µM
4. C/C(CN1C(=O)c2ccccc2C1=O)=N\NS(=O)(=O)c1ccc(Br)cc1 ... > 100 µM
5. COc1ccc2c(c1)CC[C@@H]1[C@@H]2CC[C@]2(C)C(=O)C3(CCCCC3)C[C@@H]12 ... > 100 µM

**Q:** Specify measured TGI for `CCc1c(C)[nH]c(/C=C2\N=C(c3ccc[nH]3)C=C2OC)c1C` .
**A:** 4.11 µM

**Q:** Specify measured TGI for `CCOC(=O)c1cc(Sc2ccc(N)c(C(=O)OCC)c2)ccc1N` .
**A:** > 100 µM

**Q:** Specify measured TGI for `CCOC(C[C@H](O)[C@H]1COC(=S)S1)OCC` .
**A:** > 100 µM

**Q:** Specify measured TGI for `CCCCc1ccc(Nc2nc(Cl)c3c(ncn3COCCOC(C)=O)n2)cc1` .
**A:** 28.4 µM

**Q:** Specify measured TGI for COc1ccc(Br)c2c1CC(C(=O)O)CC2 (stereo unspecified) .
**A:** > 100 µM

**Q:** Specify measured TGI for `CCOC(=O)CSc1ccnc(=O)[nH]1` .
**A:** > 100 µM

----------
The reader will find reported log10 TGI values listed item by item below.
Tested on: KM12 colon
ASSAY SUMMARY: NCI tumour cell line growth inhibition, 48 h
Friendly reminder: values = log10 of TGI, unit µM.

Example cases with answers are listed next.
1. O=C(NC(C(F)(F)F)(C(F)(F)F)P(=O)(c1ccccc1)c1ccccc1)C(C(F)(F)F)C(F)(F)F ... 1.75
2. O=C1C(Cl)=C(N/N=c2/[nH][nH]/c(=N/NC3=C(Cl)C(=O)c4ccccc4C3=O)c3ccccc23)C(=O)c2ccccc21 ... 1.32
3. C[C@]12CC[C@H]3[C@@H](CCC4=CC(=O)CC[C@@H]43)[C@@H]1CC[C@@H]2OC(=O)N(CCCl)N=O ... 1.28
4. COc1cc(S(=O)(=O)Nc2ccc(-c3csc(N4C(=O)CSC4c4cccs4)n3)cc2)ccc1Cl (stereo not given) ... 1.69

**Q:** Specify measured log10 TGI for Cc1ccc(NCC2CC/C(=C\c3ccc(Cl)cc3)C2=O)cc1 (stereo not given) .
**A:** 1.28

**Q:** Specify measured log10 TGI for `COc1cc(OCc2ccc3nc(-c4ccccc4)c(N)nc3c2)cc(OC)c1OC` .
**A:** 1.56

----------
Test system: NCI-H226 lung
ASSAY SUMMARY: NCI tumour cell line growth inhibition, 48 h; in the data active = GI50 below about 0.43 µM; inactive = the rest
A correct response names exactly one class from active, inactive

1) COc1cccc(OC(=O)c2ccccc2Nc2ccnc(C(F)(F)F)c2)c1 ... inactive
2) CCc1c(C)[nH]c(/C=C2\N=C(c3ccc[nH]3)C=C2OC)c1C ... inactive
3) CCCN1C(=O)/C(=c2\sc3n(c2=O)C2C(NN=3)N(CC)C(=O)N2CC)c2ccccc21 (stereo unspecified) ... inactive
4) CCC[CH2][Sn]([CH2]CCC)([O]C(C)=O)[O]C(C)=O ... inactive
5) CC(C)(O)c1ccc(N2CCN(c3nnc(Cc4ccccc4)c4ccccc34)CC2)nc1 ... inactive
6) COc1ccc(C(=O)/C=C/c2ccc(Cl)cc2)cc1S(=O)(=O)Nc1c(N)nc(SC)[nH]c1=O ... inactive
7) COc1cc(Cn2cc3c(c2)-c2oncc2CC3)cc(OC)c1OC ... active
8) Fc1ccc2[nH]cc(Cc3c[nH]c4ccc(F)cc34)c2c1 ... inactive

**Q:** Outcome logged for `C[C@]12CC[C@H]3[C@@H](CCC4=CC(=O)CC[C@@H]43)[C@@H]1CC[C@@H]2OC(=O)N(CCCl)N=O` in this assay:
**A:** inactive

**Q:** Outcome logged for `CCOC(=O)Cc1c[nH]c(=S)[nH]c1=O` in this assay:
**A:** inactive

**Q:** Outcome logged for `CN(C)c1ccc2nc3ccc(=[N+](C)C)cc-3oc2c1` in this assay:
**A:** inactive
